Target: T1, biotin-labeled human ADM (human, not fully specified; biotin label (named human ADM-C-biotin in Example 1.4; position of the biotin not stated for the other lots))
T1 construct: Synthetic peptide; also called human ADM-C-biotin; hADM-Biotin
T1 peptide: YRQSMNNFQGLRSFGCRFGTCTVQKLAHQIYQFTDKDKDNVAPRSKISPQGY
Test: BLI (Octet RED96e), as in Example 3
Below, each entry is listed with its recorded Response value.

Completed entries (count: 6):
[[record]]
binder = "Ab2004.Am31 (IgG1 antibody) (antibody, V domains shown, Expressed in CHO cells, human IgG1/kappa) VH: QVQLVQSGAEVKKPGASVKVSCKASGYTFTQYGIAWVRQAPGQGLEWMGWISAYQGNTNYAQKLQGRVTMTRDTSTSTAYMELRSLRSDDTAVYYCAREGRWGGSFNIWGQGTMVTVSS VL: DIQMTQSPSSLSASVGDRVTITCRASEGISEYLAWYQQKPGKAPKLLIYDASNLETGVPSRFSGSGSGTDFTFTISSLQPEDIATYYCQQYDNLPLTFGGGTKVEIKR"
quantity_measured = "Response value"
experimental_value = 2.64

[[record]]
binder = "Ab2004.Am34 (IgG1 antibody) (antibody, V domains shown, Expressed in CHO cells, human IgG1/kappa) VH: QVQLVQSGAEVKKPGASVKVSCKASGYTFTHYGIAWVRQAPGQGLEWMGWISAYQGNTNYAQKLQGRVTMTRDTSTSTAYMELRSLRSDDTAVYYCAREGRWGGSFNIWGQGTMVTVSS VL: DIQMTQSPSSLSASVGDRVTITCRASQGISSYLAWYQQKPGKAPKLLIYDVSILDAGVPSRFSGSGSGTDFTFTISSLQPEDIATYYCQQYDNLPLTFGGGTKVEIKR"
quantity_measured = "Response value"
experimental_value = 2.61

[[record]]
binder = "Enibarcimab (antibody, V domains shown) VH: QVQLVQSGAEVKKPGSSVKVSCKASGYTFSRYWIEWVRQAPGQGLEWIGEILPGSGSTNYNQKFQGRVTITADTSTSTAYMELSSLRSEDTAVYYCTEGYEYDGFDYWGQGTTVTVSS VL: DVVLTQSPLSLPVTLGQPASISCRSSQSIVYSNGNTYLEWYLQRPGQSPRLLIYRVSNRFSGVPDRFSGSGSGTDFTLKISRVEAEDVGVYYCFQGSHIPYTFGGGTKLEIKR"
quantity_measured = "Response value"
experimental_value = 2.07

[[record]]
binder = "Ab2004.Am37 (IgG1 antibody) (antibody, V domains shown, Expressed in CHO cells, human IgG1/kappa) VH: QVQLVQSGAEVKKPGASVKVSCKASGYTFTSYGISWVRQAPGQGLEWMGWISPYTGKTNYAQKLQGRVTMTRDTSTSTAYMELRSLRSDDTAVYYCAREGRWGGSFNIWGQGTMVTVSS VL: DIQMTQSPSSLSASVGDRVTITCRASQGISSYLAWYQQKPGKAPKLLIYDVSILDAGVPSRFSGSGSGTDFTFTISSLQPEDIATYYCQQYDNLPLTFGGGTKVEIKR"
quantity_measured = "Response value"
experimental_value = 2.88

[[record]]
binder = "Ab2004.Am33 (IgG1 antibody) (antibody, V domains shown, Expressed in CHO cells, human IgG1/kappa) VH: QVQLVQSGAEVKKPGASVKVSCKASGYTFTSYGISWVRQAPGQGLEWMGWISPYSGNTNYAQKLQGRVTMTRDTSTSTAYMELRSLRSDDTAVYYCAREGRWGGSFNIWGQGTMVTVSS VL: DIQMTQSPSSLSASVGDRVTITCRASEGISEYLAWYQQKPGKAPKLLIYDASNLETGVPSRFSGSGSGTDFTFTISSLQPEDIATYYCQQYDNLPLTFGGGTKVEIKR"
quantity_measured = "Response value"
experimental_value = 2.63

[[record]]
binder = "Ab2004.Am32 (IgG1 antibody) (antibody, V domains shown, Expressed in CHO cells, human IgG1/kappa) VH: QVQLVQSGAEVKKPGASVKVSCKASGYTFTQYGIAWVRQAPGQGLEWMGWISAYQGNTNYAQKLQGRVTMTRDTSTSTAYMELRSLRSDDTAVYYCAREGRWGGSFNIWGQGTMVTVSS VL: DIQMTQSPSSLSASVGDRVTITCRAAEGIGSYLAWYQQKPGKAPKLLIYDASNLETGVPSRFSGSGSGTDFTFTISSLQPEDIATYYCQQYDNLPLTFGGGTKVEIKR"
quantity_measured = "Response value"
experimental_value = 2.53


Would you kindly look at the next entry?
Q: Supply measured Response value of Ab2004.Am40 (IgG1 antibody) (antibody, V domains shown, Expressed in CHO cells, human IgG1/kappa) VH: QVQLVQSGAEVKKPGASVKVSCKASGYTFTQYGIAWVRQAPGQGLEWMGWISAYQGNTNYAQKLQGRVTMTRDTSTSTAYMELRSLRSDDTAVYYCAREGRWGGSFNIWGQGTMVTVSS VL: DIQMTQSPSSLSASVGDRVTITCRASQGISSYLAWYQQKPGKAPKLLIYDASNLETGVPSRFSGSGSGTDFTFTISSLQPEDIATYYCQQYDDLPLSFGGGTKVEIKR in your reply.
A: 2.66
